- Test system: LOU-NH91
- PROTOCOL NOTES: relative viability (nuclei count vs DMSO), 5 days (fraction); higher = more cells survive
- CONDITIONS: first compound 0.8 µM
PARAMETER: relative viability
Quick one: just the number, no unit, thanks!

COMPOUND	MEASURED RESULT
O=c1cc(-c2cccc3c2Sc2ccccc2S3)oc(N2CCOCC2)c1 + O=C(CCCCCCC(=O)Nc1ccccc1)NO [Vorinostat] (partner 1 µM)	0.854
O=c1cc(-c2cccc3c2Sc2ccccc2S3)oc(N2CCOCC2)c1 + O=C(c1cc(Cc2n[nH]c(=O)c3ccccc23)ccc1F)N1CCN(C(=O)C2CC2)CC1 [Olaparib] (partner 8 µM)	0.866

## Input Using LOU-NH91 as the test system, report measured relative viability of O=c1cc(-c2cccc3c2Sc2ccccc2S3)oc(N2CCOCC2)c1 + CC1(C)CCC(c2ccc(Cl)cc2)=C(CN2CCN(c3ccc(C(=O)NS(=O)(=O)c4ccc(N[C@H](CCN5CCOCC5)CSc5ccccc5)c(S(=O)(=O)C(F)(F)F)c4)cc3)CC2)C1 [Navitoclax] (partner 0.5 µM) .
## Output 0.573

----------
- Test system: NCI-H1648
- PROTOCOL NOTES: relative viability (nuclei count vs DMSO), 5 days (fraction); higher = more cells survive
- CONDITIONS: first compound 0.1 µM
# relative viability per record follows
Quick one: just the number, no unit, thanks!

Some compounds with recorded relative viability:
COMPOUND	relative viability
CCN(CC)CCCCNc1ncc2cc(-c3cc(OC)cc(OC)c3)c(NC(=O)NC(C)(C)C)nc2n1 + O=C(CCCCCCC(=O)Nc1ccccc1)NO [Vorinostat] (partner 1 µM)	0.666
CCN(CC)CCCCNc1ncc2cc(-c3cc(OC)cc(OC)c3)c(NC(=O)NC(C)(C)C)nc2n1 + NC(=O)Nc1cc(-c2cccc(F)c2)sc1C(=O)N[C@H]1CCCNC1 [AZD7762] (partner 0.2 µM)	0.757
O=c1cc(N2CCOCC2)oc2c(-c3cccc4c3sc3ccccc34)cccc12 + Nc1ncn([C@H]2C[C@H](O)[C@@H](CO)O2)c(=O)n1 [Decitabine] (partner 2 µM)	0.496
O=c1cc(N2CCOCC2)oc2c(-c3cccc4c3sc3ccccc34)cccc12 + O=C(c1cc(Cc2n[nH]c(=O)c3ccccc23)ccc1F)N1CCN(C(=O)C2CC2)CC1 [Olaparib] (partner 8 µM)	1.28
CCN(CC)CCCCNc1ncc2cc(-c3cc(OC)cc(OC)c3)c(NC(=O)NC(C)(C)C)nc2n1 + Nc1ncn([C@H]2C[C@H](O)[C@@H](CO)O2)c(=O)n1 [Decitabine] (partner 2 µM)	0.499

## Input Consider the compound O=c1cc(N2CCOCC2)oc2c(-c3cccc4c3sc3ccccc34)cccc12 + COc1cccc2cc(-c3nc([C@H]4CC[C@H](C(=O)O)CC4)n4ncnc(N)c34)[nH]c12 [OSI-027] (partner 0.5 µM) and give its recorded relative viability.
## Output 0.239

## Input Consider the compound CCN(CC)CCCCNc1ncc2cc(-c3cc(OC)cc(OC)c3)c(NC(=O)NC(C)(C)C)nc2n1 + COc1cccc2cc(-c3nc([C@H]4CC[C@H](C(=O)O)CC4)n4ncnc(N)c34)[nH]c12 [OSI-027] (partner 0.5 µM) and give its recorded relative viability.
## Output 0.26

## Input Consider the compound CCN(CC)CCCCNc1ncc2cc(-c3cc(OC)cc(OC)c3)c(NC(=O)NC(C)(C)C)nc2n1 + CC(=O)c1c(C)c2cnc(Nc3ccc(N4CCNCC4)cn3)nc2n(C2CCCC2)c1=O [Palbociclib] (partner 0.5 µM) and give its recorded relative viability.
## Output 0.237

----------
- System: HCC-15
- PROTOCOL NOTES: relative viability (nuclei count vs DMSO), 5 days (fraction); higher = more cells survive
- CONDITIONS: first compound 0.3162 µM
Quick rule for you: relative viability under 0.7 gets rule met, anything else gets rule not met.

Solved entries (count: 3):
MOLECULE	CAT
O=c1cc(N2CCOCC2)oc2c(-c3cccc4c3sc3ccccc34)cccc12 + C[C@@H](Oc1cc(-c2cnn(C3CCNCC3)c2)cnc1N)c1c(Cl)ccc(F)c1Cl [Crizotinib] (partner 1 µM)	rule not met
O=c1cc(N2CCOCC2)oc2c(-c3cccc4c3sc3ccccc34)cccc12 + Nc1ncn([C@H]2C[C@H](O)[C@@H](CO)O2)c(=O)n1 [Decitabine] (partner 2 µM)	rule met
CCN(CC)CCCCNc1ncc2cc(-c3cc(OC)cc(OC)c3)c(NC(=O)NC(C)(C)C)nc2n1 + CCNC(=O)c1noc(-c2cc(C(C)C)c(O)cc2O)c1-c1ccc(CN2CCOCC2)cc1 [Luminespib] (partner 0.01 µM)	rule met

## Input For this molecule, is relative viability lower than 0.7? CCN(CC)CCCCNc1ncc2cc(-c3cc(OC)cc(OC)c3)c(NC(=O)NC(C)(C)C)nc2n1 + O=C(CCCCCCC(=O)Nc1ccccc1)NO [Vorinostat] (partner 1 µM)
## Output rule not met

## Input For this molecule, is relative viability lower than 0.7? CCN(CC)CCCCNc1ncc2cc(-c3cc(OC)cc(OC)c3)c(NC(=O)NC(C)(C)C)nc2n1 + Cc1cc(Nc2cc(N3CCN(C)CC3)nc(Sc3ccc(NC(=O)C4CC4)cc3)n2)n[nH]1 [Tozasertib] (partner 0.1 µM)
## Output rule met

## Input For this molecule, is relative viability lower than 0.7? CCN(CC)CCCCNc1ncc2cc(-c3cc(OC)cc(OC)c3)c(NC(=O)NC(C)(C)C)nc2n1 + C[C@@H](Oc1cc(-c2cnn(C3CCNCC3)c2)cnc1N)c1c(Cl)ccc(F)c1Cl [Crizotinib] (partner 1 µM)
## Output rule not met

## Input For this molecule, is relative viability lower than 0.7? O=c1cc(N2CCOCC2)oc2c(-c3cccc4c3sc3ccccc34)cccc12 + COc1cc2c(Oc3ccc(NC(=O)C4(C(=O)Nc5ccc(F)cc5)CC4)cc3F)ccnc2cc1OCCCN1CCOCC1 [Foretinib] (partner 0.25 µM)
## Output rule not met

## Input For this molecule, is relative viability lower than 0.7? CCN(CC)CCCCNc1ncc2cc(-c3cc(OC)cc(OC)c3)c(NC(=O)NC(C)(C)C)nc2n1 + Cc1nc(Nc2ncc(C(=O)Nc3c(C)cccc3Cl)s2)cc(N2CCN(CCO)CC2)n1 [Dasatinib] (partner 0.075 µM)
## Output rule not met

----------
- Tested on: RERF-LC-KJ
- PROTOCOL NOTES: relative viability (nuclei count vs DMSO), 5 days (fraction); higher = more cells survive
- CONDITIONS: first compound 2 µM
# relative viability per record follows
Quick one: just the number, no unit, thanks!

COMPOUND	relative viability
COCC1(CO)C(=O)C2CCN1CC2 (configuration not stated) [PRIMA-1MET] + Cc1nc(NC(=O)N2CCC[C@H]2C(N)=O)sc1-c1ccnc(C(C)(C)C(F)(F)F)c1 [Alpelisib] (partner 2 µM)	0.715
COCC1(CO)C(=O)C2CCN1CC2 (configuration not stated) [PRIMA-1MET] + CS(=O)(=O)CCNCc1ccc(-c2ccc3ncnc(Nc4ccc(OCc5cccc(F)c5)c(Cl)c4)c3c2)o1 [Lapatinib] (partner 2 µM)	0.874
COCC1(CO)C(=O)C2CCN1CC2 (configuration not stated) [PRIMA-1MET] + O=C(c1cc(Cc2n[nH]c(=O)c3ccccc23)ccc1F)N1CCN(C(=O)C2CC2)CC1 [Olaparib] (partner 8 µM)	0.977
COCC1(CO)C(=O)C2CCN1CC2 (configuration not stated) [PRIMA-1MET] + COc1cc2c(Oc3ccc(NC(=O)C4(C(=O)Nc5ccc(F)cc5)CC4)cc3F)ccnc2cc1OCCCN1CCOCC1 [Foretinib] (partner 0.25 µM)	0.922
COCC1(CO)C(=O)C2CCN1CC2 (configuration not stated) [PRIMA-1MET] + CC(C)C[C@H](NC(=O)[C@H](Cc1ccccc1)NC(=O)c1cnccn1)B(O)O [Bortezomib] (partner 0.002 µM)	1.13

## Input Consider the compound COCC1(CO)C(=O)C2CCN1CC2 (configuration not stated) [PRIMA-1MET] + O=C(CCCCCCC(=O)Nc1ccccc1)NO [Vorinostat] (partner 1 µM) and give its recorded relative viability.
## Output 0.589

## Input Consider the compound COCC1(CO)C(=O)C2CCN1CC2 (configuration not stated) [PRIMA-1MET] + C[C@]1(O)C[C@@H](c2nc(-c3ccc4ccc(-c5ccccc5)nc4c3)c3c(N)nccn32)C1 [Linsitinib] (partner 1 µM) and give its recorded relative viability.
## Output 0.832

----------
- Test system: NCI-H520
- PROTOCOL NOTES: relative viability (nuclei count vs DMSO), 5 days (fraction); higher = more cells survive
- CONDITIONS: first compound 1 µM
PARAMETER: relative viability
Quick one: just the number, no unit, thanks!

Some compounds with recorded relative viability:
COMPOUND	EXPERIMENTAL SYSTEM	MEASURED RESULT
O=c1cc(N2CCOCC2)oc2c(-c3cccc4c3sc3ccccc34)cccc12 + Cc1nc(NC(=O)N2CCC[C@H]2C(N)=O)sc1-c1ccnc(C(C)(C)C(F)(F)F)c1 [Alpelisib] (partner 2 µM)	NCI-H520	0.996
O=c1cc(N2CCOCC2)oc2c(-c3cccc4c3sc3ccccc34)cccc12 + C[C@]1(O)C[C@@H](c2nc(-c3ccc4ccc(-c5ccccc5)nc4c3)c3c(N)nccn32)C1 [Linsitinib] (partner 1 µM)	NCI-H520	0.876
CCN(CC)CCCCNc1ncc2cc(-c3cc(OC)cc(OC)c3)c(NC(=O)NC(C)(C)C)nc2n1 + CCNC(=O)c1noc(-c2cc(C(C)C)c(O)cc2O)c1-c1ccc(CN2CCOCC2)cc1 [Luminespib] (partner 0.01 µM)	NCI-H520	0.207
CCN(CC)CCCCNc1ncc2cc(-c3cc(OC)cc(OC)c3)c(NC(=O)NC(C)(C)C)nc2n1 + C[C@]1(O)C[C@@H](c2nc(-c3ccc4ccc(-c5ccccc5)nc4c3)c3c(N)nccn32)C1 [Linsitinib] (partner 1 µM)	NCI-H520	0.332

## Input Consider the compound O=c1cc(N2CCOCC2)oc2c(-c3cccc4c3sc3ccccc34)cccc12 + CS(=O)(=O)CCNCc1ccc(-c2ccc3ncnc(Nc4ccc(OCc5cccc(F)c5)c(Cl)c4)c3c2)o1 [Lapatinib] (partner 2 µM) and give its recorded relative viability.
## Output 0.906

## Input Consider the compound CCN(CC)CCCCNc1ncc2cc(-c3cc(OC)cc(OC)c3)c(NC(=O)NC(C)(C)C)nc2n1 + COc1cccc2cc(-c3nc([C@H]4CC[C@H](C(=O)O)CC4)n4ncnc(N)c34)[nH]c12 [OSI-027] (partner 0.5 µM) and give its recorded relative viability.
## Output 0.155
